Here we gather IC50 data for UniProtKB P57059 reported by several publications.

Below, each entry is followed by its recorded IC50 result.
Hello, I am looking for reported IC50 with UniProtKB P57059 for COc1cc(-c2cnc3cc(OCCN4CCOC(C)(C)C4)ccn23)cc(OC(F)F)c1C(=O)NC1CC1 . Could you help?
10 to 100 nM

Give recorded IC50 with UniProtKB P57059 for the following compound: COc1cc(-c2cnc3cc(OCCCN4CCC(S(C)(=O)=O)CC4)ccn23)cc(OC(F)F)c1C(=O)NC1CC1
10 to 100 nM

Item: COc1cc(-c2c3c(C#N)cc(-c4cnn(CC5(F)COC5)c4)cc3nn2C)cc(OC(F)F)c1C(=O)NCC1(F)CC1 Test system: UniProtKB P57059 Read-out: IC50 Value: ?
17.6 nM

Quick check: IC50 on UniProtKB P57059, item O=S(=O)(c1cccc(-c2c[nH]c3nccc(-c4ccsc4)c23)c1)N1CCCC1 ?
> 1000 nM

Fill in the recorded IC50 for this compound, with UniProtKB P57059 as test system: COc1cc(-c2cnc3cc(OCCCN4CC(O)C(F)(F)C4)ccn23)cc(OC(F)F)c1C(=O)NC1CC1 (stereo not shown)
10 to 100 nM

Request body: readout IC50, system UniProtKB P57059, query COc1cc(-c2cnc3cc(OCCCN4CC5CCC(C4)O5)ccn23)cc(OC(F)F)c1C(=O)NC1CC1 . Return the value.
10 to 100 nM

Next compound, please.
So what IC50 did COc1cc(-c2cnc3cc(OCc4ccnn4C)ccn23)cnc1C(=O)NCC(F)(F)F get with UniProtKB P57059?
> 500 nM

###

Literature IC50 values, system: UniProt:P57059.

Examples with their reported IC50 follow.
What value of IC50 has been reported for the following compound? COc1cc(-c2c3c(C#N)cc(-c4cnn(C[C@@H](O)c5ccccc5)c4)cc3nn2C)cc(OC(F)F)c1C(=O)NCC1(F)CC1
15.3 nM

# input compound: COc1cc(-c2c3c(C#N)cc(-c4cc[nH]n4)cc3nn2C)cc(OC(F)F)c1C(=O)N[C@@H]1C[C@@H]1F ; wanted: its IC50
6.6 nM

Name the recorded IC50 for COc1cc(-c2cnc3cc(OCc4cncn4C)ccn23)cc(OC(F)F)c1C(=O)NC1CC1 .
10 to 100 nM

Which IC50 value belongs to COc1cc(-c2cnc3cc(OCCN4CCCCC4)ccn23)cc(OC(F)F)c1C(=O)NC1CC1 ?
10 to 100 nM

Quick check: IC50 of COc1cc(-c2cnc3cc(OCCN(C(C)C)C(C)C)ccn23)cc(OC(F)F)c1C(=O)NC1CC1 ?
100 to 500 nM

Looking for the measured IC50 of COc1c(F)cccc1-c1c[nH]c2ncc(-c3ccc(CN4CCOCC4)s3)cc12 , can you help?
> 1000 nM

I am curious: what IC50 value has been reported for COc1cc(-c2cnc3cc(OC[C@@H](N)C4CCCCC4)ccn23)cc(OC(F)F)c1C(=O)NC1CC1 ?
10 to 100 nM

Can you share its IC50? I mean this compound: COc1cc(-c2cnc3cc(OC(C)(C)CO)ccn23)cc(OC(F)F)c1C(=O)NC1CC1
> 500 nM

Look up IC50: COc1cc(-c2c3c(C#N)cc(-c4cnn(Cc5ncco5)c4)cc3nn2C)cc(OC(F)F)c1C(=O)NCC1(F)CC1
14.8 nM

Which value of IC50 has been reported for COc1cc(-c2cnc3cc(OCC(=O)O)ccn23)cc(OC(F)F)c1C(=O)NC1CC1 in the records?
100 to 500 nM

Continuing:
// query IC50 value for entry COc1cc(-c2cnc3cc(OCCCN4CCCCC4)ccn23)cc(OC(F)F)c1C(=O)N1CC(O)(C(F)(F)F)C1
10 to 100 nM

I am curious: what IC50 value has been reported for COc1cc(-c2c3c(C#N)cc(-c4cnn(CCC(C)C)c4)cc3nn2C)cc2c1C(=O)NC[C@@H]2C (single isomer, unassigned) ?
9.1 nM

Give its IC50 value. Item: COc1cc(-c2cnc3cc(OCC(C)(C)C#N)ccn23)cc(OC(F)F)c1C(=O)NC1CC1
10 to 100 nM

What does the data say about its IC50? Entry: COc1cc(-c2cnc3cc(OCCC4CCCCN4C)ccn23)cc(OC(F)F)c1C(=O)NC1CC1 (stereo not drawn)
0.01 to 10 nM

Please give the measured IC50 for this compound: COc1cc(-c2cnc3cc(OCC(=O)N(C)C)ccn23)cc(OC(F)F)c1C(=O)NC1CC1
100 to 500 nM
